experiment: Quantitative High-Throughput drug screen in 47 multiple myeloma cell lines against the NCATS MIPE library collection: KMS11_JCRBsus cell viability assay (AID 1919873); details: KMS11 myeloma viability, CellTiter-Glo ATP luminescence, 48 h; series mostly up to 45.8 µM; also: nearly all actives have a fitted effect of over 50% in size
Records with an inconclusive call do not appear. Activity calls are given as the source filed them. Calls follow the shape of the dose curve; as a rule, active = well fitted cell-killing curve with a large enough effect; inconclusive = small, poorly fitted or top-dose-only effect, or effect the other way; inactive = no such curve, though single readings can be large or run the other way.
Possible outcomes: 1 (yes) (active), 0 (no) (inactive)

- itemSmiles: "CC(=O)OC[C@@H]1O[C@@H](n2ccc(=O)[nH]c2=O)[C@H](OC(C)=O)[C@H]1OC(C)=O"
  answerLabel: "0 (no)"
- itemSmiles: "COc1cc2c(Nc3ccc(Cl)c(Cl)c3F)ncnc2cc1OCC1C[C@@H]2CN(C)C[C@H]2C1"
  answerLabel: "1 (yes)"
- itemSmiles: "CCOC(=O)C=C[C@H](C[C@@H]1CCNC1=O)NC(=O)[C@@H](CC(=O)[C@@H](NC(=O)c1cc(C)on1)C(C)C)Cc1ccc(F)cc1"
  answerLabel: "0 (no)"

---

assay: qHTS of pediatric cancer cell lines to identify multiple opportunities for drug repurposing: Primary screen for BT-37 cells (AID 1347094); details: BT-37 viability, CellTiter-Glo luminescence, 48 h; series mostly up to 57.3 µM; also: potency is read from the fitted curve at half-maximal effect
Records with an inconclusive call do not appear. Active and inactive are the calls of the source. Calls follow the shape of the dose curve; as a rule, active = well fitted cell-killing curve with a large enough effect; inconclusive = small, poorly fitted or top-dose-only effect; inactive = flat fitted curve, though single readings scatter.
metric: Potency

- itemSmiles: "N#CC(=C(O)c1ccc(Cl)cc1Cl)c1nc2cc(Cl)ccc2c(=O)[nH]1"
  result: "inactive"
- itemSmiles: "COc1ccc2cc([S+]([O-])Cc3ncc(C)c(OC)c3C)nc2c1"
  result: "inactive"
- itemSmiles: "Nc1ccc(C(=O)Nc2cccc(-c3nc(N4CCOCC4)c4oc5ncccc5c4n3)c2)cn1"
  result: "13.7 µM (active)"
- itemSmiles: "CN(C)CC[C@H](c1ccc(Cl)cc1)c1ccccn1"
  result: "inactive"
- itemSmiles: "CN1CCCN(C(=O)c2cccc(-c3ccc(C=C4C(=O)Nc5ccc(Cl)cc54)o3)c2)CC1"
  result: "6.85 µM (active)"

---

assay: qHTS Screen of the MIPE 4.0 Collection Against Ewings Sarcoma (RDES) (AID 1259252); conditions: RD-ES Ewing sarcoma viability, CellTiter-Glo, 48 h; series mostly up to 45.8 µM; also: nearly all actives have a fitted effect of over 35% in size
Results filed as inconclusive are left out. The source made the active and inactive calls. The call rests on the fitted dose curve; in most records, active means well fitted inhibition curve with a large enough effect; inconclusive means small, poorly fitted or top-dose-only effect; inactive means no such curve, though single readings can be large or run the other way.
Possible outcomes: active, inactive

- molecule: "CC(=O)O[C@H]1C[C@@H]2CC[C@H]3[C@H]4C[C@H]([N+]5(C)CCCCC5)[C@@H](OC(C)=O)[C@@]4(C)CC[C@@H]3[C@@]2(C)C[C@H]1[N+]1(C)CCCCC1"
  answerLabel: "active"
- molecule: "COC(=O)[C@@H]1[C@H]2C[C@@H]3c4[nH]c5ccccc5c4CCN3C[C@@H]2CC[C@@H]1O"
  answerLabel: "inactive"
- molecule: "Cn1cc(-c2cnn3c(N)c(Br)c([C@H]4CCCNC4)nc23)cn1"
  answerLabel: "active"
- molecule: "COC[C@H](NC(=O)c1cnc(C)s1)C(=O)N[C@@H](COC)C(=O)N[C@@H](Cc1ccccc1)C(=O)[C@@]1(C)CO1"
  answerLabel: "active"
- molecule: "COC(=O)C=CC(=O)OC"
  answerLabel: "active"
- molecule: "O=C1NC(=O)C(=Cc2ccc3nccc(-c4ccncc4)c3c2)S1"
  answerLabel: "active"
- molecule: "CS[C@H]1SC[C@@H]2C(=O)N(C)[C@H](C(C)C)C(=O)OC[C@H](NC(=O)c3cnc4ccccc4n3)C(=O)N[C@H](C)C(=O)N(C)[C@@H]1C(=O)N(C)[C@H](C(C)C)C(=O)OC[C@H](NC(=O)c1cnc3ccccc3n1)C(=O)N[C@H](C)C(=O)N2C"
  answerLabel: "active"
- molecule: "NC[C@H]1O[C@H](O[C@H]2[C@@H](O)[C@@H](O[C@H]3O[C@H](CO)[C@@H](O)[C@H](N)[C@@H]3O)[C@H](N)C[C@@H]2N)[C@H](N)C[C@H]1O"
  answerLabel: "inactive"
- molecule: "O=C(C=CC=Cc1ccc2c(c1)OCO2)N1CCCCC1"
  answerLabel: "inactive"
- molecule: "CN(N=O)C(=O)N[C@H]1C(O)OC(CO)[C@@H](O)[C@H]1O (stereo partly specified)"
  answerLabel: "inactive"
- molecule: "CC(=O)N[C@@H]1[C@H](O[C@@H]2c3ccc(c(Cl)c3)Oc3cc4cc(c3O[C@H]3O[C@H](CO)[C@@H](O)[C@H](O)[C@H]3NC(=O)CCCCCCCC(C)C)Oc3ccc(cc3Cl)C[C@H]3NC(=O)[C@H](N)c5ccc(O)c(c5)Oc5cc(O)cc(c5)[C@H](NC3=O)C(=O)N[C@H]4C(=O)N[C@H]3C(=O)N[C@@H]2C(=O)N[C@@H](C(=O)O)c2cc(O)cc(O[C@H]4O[C@H](CO)[C@@H](O)[C@H](O)[C@H]4O)c2-c2cc3ccc2O)O[C@H](CO)[C@@H](O)[C@@H]1O"
  answerLabel: "inactive"

---

test: qHTS profiling of the MIPE4 collection as inhibitors of Plasmodium falciparum (DD2) proliferation (Rep 2) (AID 743346); details: P. falciparum Dd2 in erythrocytes, SYBR Green DNA, 72 h; at 28.5 µM (top of the series) unless noted
Mark 1 (yes) for parasite growth, % of control (lower = inhibition) under 50%, 0 (no) if at or over.

- compound: "COc1cc([C@@H]2c3cc4c(cc3[C@H](O)[C@H]3COC(=O)[C@@H]23)OCO4)cc(OC)c1OC"
  answerLabel: "1 (yes)"
- compound: "COc1ccnc2[nH]cc(C(=O)C(=O)N3CCN(C(=O)c4ccccc4)C[C@@H]3C)c12"
  answerLabel: "0 (no)"
- compound: "COc1cc2c(cc1O)CCC1C2CC[C@@]2(C)C1CC[C@@H]2O (some centres undefined)"
  answerLabel: "0 (no)"
- compound: "CC(=O)C1=C(O)C=C2Oc3c(C(C)=O)c(O)c(C)c(O)c3C2(C)C1=O (centres undefined)"
  answerLabel: "0 (no)"
- compound: "COc1cccc2c1C(=O)c1c(O)c3c(c(O)c1C2=O)C[C@@](O)(C(=O)CO)C[C@@H]3O[C@H]1C[C@H](N)[C@H](OC2CCCCO2)[C@H](C)O1 (some centres undefined)"
  answerLabel: "1 (yes)"
- compound: "CN(CC(=O)N(Cc1ccc(C2CCCCC2)cc1)c1ccc(C(=O)O)c(O)c1)S(=O)(=O)c1c(F)c(F)c(F)c(F)c1F"
  answerLabel: "0 (no)"
- compound: "C[C@H](NCc1ccc(OCc2cccc(F)c2)cc1)C(N)=O"
  answerLabel: "1 (yes)"
- compound: "CCN(CC)CCCCNc1ncc2c(n1)N(C)C(=O)N(c1c(Cl)c(OC)cc(OC)c1Cl)C2"
  answerLabel: "1 (yes)"
- compound: "NS(=O)(=O)OC[C@@H]1C[C@@H](n2ccc3c(N[C@H]4CCc5ccccc54)ncnc32)C[C@H]1O"
  answerLabel: "1 (yes)"
- compound: "CCC(C(=O)O)C1CCC(C)C(C(C)C(O)C(C)C(=O)C(CC)C2OC3(C=CC(O)[C@@]4(CC[C@](C)(C5CC[C@@](O)(CC)C(C)O5)O4)O3)C(C)CC2C)O1 (some centres undefined)"
  answerLabel: "1 (yes)"
- compound: "C[C@H]1C[C@H]2[C@@H]3CCC4=CC(=O)C=C[C@]4(C)[C@@H]3C(=O)C[C@]2(C)[C@@]1(O)C(=O)CO"
  answerLabel: "0 (no)"
- compound: "Nc1ncn([C@@H]2O[C@H](CO)[C@@H](O)[C@@H]2O)c(=O)n1"
  answerLabel: "0 (no)"
- compound: "Oc1cc2c(cc1O)C1c3ccc(O)c(O)c3OCC1(O)C2 (centres undefined)"
  answerLabel: "1 (yes)"
- compound: "c1cc(CN2CCCNCCNCCCNCC2)ccc1CN1CCCNCCNCCCNCC1"
  answerLabel: "0 (no)"
- compound: "C[C@]12C=CC(=O)N[C@@H]1CC[C@H]1[C@H]3CC[C@@H](C(=O)Nc4cc(C(F)(F)F)ccc4C(F)(F)F)[C@@]3(C)CC[C@@H]12"
  answerLabel: "1 (yes)"
- compound: "N#CC(=C(O)c1ccc(Cl)cc1Cl)c1nc2cc(Cl)ccc2c(=O)[nH]1"
  answerLabel: "0 (no)"
- compound: "O=C1CSC(=O)N1C(CCc1ccncc1)COc1ccc(-c2cccc([N+](=O)[O-])c2)cc1 (centres undefined)"
  answerLabel: "1 (yes)"

---

Test: Quantitative High-Throughput drug screen in 47 multiple myeloma cell lines against the NCATS MIPE library collection: JJN3_DSMZ cell viability assay (AID 1918966; also: nearly all actives have a fitted effect of over 50% in size)
Details: JJN3 myeloma cells viability, CellTiter-Glo ATP, 48 h; series mostly up to 45.8 µM
Text: PI: Beverly A. Mock Ph.D. Laboratory of Cancer Biology and Genetics, Center for Cancer Research, National Cancer Institute, National Institute of Health, Bethesda, Maryland […] 5; Detector; 425V; Luminescence; Viewlux PerkinElmer. […] 1. […] Briefly, the corresponding myeloma cell lines were screened in 1,536-well plates with 500 cells, 5-uL per well for inhibition of cell viability (assessed by measuring ATP levels with CellTiterGlo). […]
Records with an inconclusive call do not appear. Activity calls are given as the source filed them. Calls follow the shape of the dose curve; as a rule, active = well fitted cell-killing curve with a large enough effect; inconclusive = small, poorly fitted or top-dose-only effect, or effect the other way; inactive = no such curve, though single readings can be large or run the other way.
Possible outcomes: yes = active, no = inactive

- compound: "COc1cc([C@@H]2c3cc4c(cc3[C@@H](O[C@@H]3O[C@@H]5CO[C@@H](c6cccs6)O[C@@H]5[C@H](O)[C@@H]3O)[C@H]3COC(=O)[C@H]23)OCO4)cc(OC)c1O"
  answerLabel: "yes"
- compound: "COc1cc(O)c2c(c1)C1OC1C[C@H](O)[C@H](O)C(=O)C=CC[C@H](C)OC2=O (some centres not stated)"
  answerLabel: "yes"
- compound: "Cn1cnc(=N)c2[nH]cnc21"
  answerLabel: "yes"
- compound: "NC(=O)c1cccc(-c2cccc(OC(=O)NC3CCCCC3)c2)c1"
  answerLabel: "no"
- compound: "C[C@@]12C(=O)OC(=O)[C@@]1(C)C1CCC2O1"
  answerLabel: "yes"
- compound: "CC[C@@]1([C@@H]2O[C@@H]([C@H]3O[C@@](O)(CO)[C@H](C)C[C@H]3C)C[C@H]2C)CC[C@H]([C@]2(C)CC[C@]3(C[C@H](O)[C@@H](C)[C@@H]([C@@H](C)[C@@H](OC)[C@H](C)C(=O)O)O3)O2)O1"
  answerLabel: "yes"
- compound: "COc1cc(C(=O)NC2CCN(C)CC2)ccc1Nc1ncc2c(n1)N(C1CCCC1)CCC(=O)N2C(C)C"
  answerLabel: "yes"
